The reported numbers originate from patent US9926264B2.

biological target: UniProtKB P25090; test: compound-induced calcium activity on FLIPR Tetra in CHO-Gα16 cells stably expressing FPR2; settings: tested 0.61 to 10,000 nM
Sequence (P25090 whole entry): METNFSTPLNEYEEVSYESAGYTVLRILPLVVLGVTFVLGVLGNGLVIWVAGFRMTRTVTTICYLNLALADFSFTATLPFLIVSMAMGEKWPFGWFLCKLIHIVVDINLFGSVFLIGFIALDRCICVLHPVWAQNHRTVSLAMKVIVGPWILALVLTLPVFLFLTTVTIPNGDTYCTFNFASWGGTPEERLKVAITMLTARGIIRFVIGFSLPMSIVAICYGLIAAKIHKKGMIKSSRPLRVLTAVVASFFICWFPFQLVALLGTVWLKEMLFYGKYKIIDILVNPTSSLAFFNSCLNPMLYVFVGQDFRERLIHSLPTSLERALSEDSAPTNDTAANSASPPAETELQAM
pEC50: −log10 of the molar value.
assay endpoint: pEC50

[A] CC(C)C[C@H](OC(=O)Nc1ccc(Br)cc1)C(=O)N(C)CC(=O)O
[B] CC(C)C[C@H](OC(=O)Nc1ccc(Br)cc1)C(=O)NCCNS(=O)(=O)N(C)C
Dear colleague, could you let me know whether A or B has the lower recorded pEC50? Thanks. // output: label of the selected item B

[I] CC(C)C[C@H](OC(=O)Nc1ccc(Br)cc1)C(=O)NCC(=O)O
[II] CCCN(CC(=O)OC(C)(C)C)C(=O)[C@H](CC(C)C)OC(=O)Nc1ccc(Br)cc1
Dear colleague, could you let me know whether I or II has the lower recorded pEC50? Thanks. // output: label of the selected item II
(II: 8.36, I: 9.08)
